test system: T-47D breast; experiment: NCI-60 one-dose screen, 48 h (100 = growth as untreated, 0 = no growth, -100 = all killed); settings: 10 µM
The panel holds about 83,000 compounds, 20% with a hit somewhere; the sample as a whole holds those more often.
parameterMeasured: growth (%)
Respond with the bare value in %.

Input: Please list growth recorded for the compound CCN(CC)CCC(=O)Nc1cccc2c1C(=O)c1c(c(O)c3ccccc3c1O)C2=O
Output: 41.2

Input: Look up and report measured growth for this entry: O=C1C(=O)c2ccccc2C(O)=C1CCCc1ccc(C2CCCCCC2)cc1
Output: 29

Input: Give the reported value of growth for this record: O=C(Nc1nc2ccccc2s1)Nc1ccc([N+](=O)[O-])cc1Cl
Output: 61.7

Input: For the compound COc1cccc(C2C3=C(COC3=O)N(CCO)c3cc(OC)ccc32)c1 (configuration not stated) , report growth.
Output: 62.1

Input: Output growth of N=C(N)c1ccc(-c2ccc(-c3cccs3)s2)cc1
Output: 55.1

Input: Give growth for the following compound: CCN(CC)CCNC(=O)c1ccc(NC(C)=O)cc1
Output: 99.7

Input: Dear colleague, please send me the reported growth for COc1ccc2c(c1)C(=O)c1c-2c(OCCN(C)C)nc2cc(OC)c(OC)cc12 when you can.
Output: 101

Input: Return growth (reported value) for this compound: Nc1nc(N)c2c(ccc3nccc32)[nH]1
Output: 73

Input: Fill in growth for record CCOC(=O)C1CCc2c(ccc3ccccc23)N1CCC#N (configuration not stated)
Output: 97.5

Input: Specify reported growth for the compound shown: CCOC(=O)CCC(NC(=O)c1ccc(N)cc1)C(=O)OCC (configuration not stated)
Output: 101

Input: Answer with the recorded growth of Cc1cc(Cl)nc(N(CCCNc2ccnc3cc(Cl)ccc23)Cc2cccs2)n1 only.
Output: -2.57

Input: Give a short answer stating reported growth for CC(=O)CSC(C)=O .
Output: 103

Input: Read the entry COc1cc2cc3c(nc2cc1OC)CCN3Cc1ccc(NC(=O)Nc2ccc(F)cc2F)cc1 and write its reported growth.
Output: 52.1

Input: Could you please provide reported growth for COc1cc(-c2cc(/C=C/C(=O)c3ccc(N)cc3)[nH]n2)cc(OC)c1OC ? Thanks!
Output: 5.11

Input: Output measured growth for this item: Cc1ccc(NC(=O)CSc2nc3ccccc3c(=O)n2CCc2ccccc2)c(C(=O)O)c1
Output: 96.2

Input: Consider the compound COc1ccc2c(c1)C(=O)c1c-2c(OCCN2CCCCC2)nc2ccc(OC)cc12 . State its measured growth.
Output: 36.6

Input: Name the recorded growth of the compound listed here: O=C1/C(=C\c2ccc(F)cc2)CN(C(=O)c2ccccc2)C/C1=C\c1ccc(F)cc1
Output: 57

Input: Kindly indicate its recorded growth. Item: Nc1c(C(=O)Nc2cccc(Br)c2)sc2nc3c(cc12)C(O)CCC3 (configuration not stated)
Output: 47.4

Input: # return recorded growth for entry CC1(C)OC2=C(CC1Br)C(=O)C(=O)c1ccccc12 (configuration not stated)
Output: -45.4

Input: Check the records and state growth for COc1ccc(Nc2cc(C)nc(NCCCNc3ccnc4cc(Cl)ccc34)n2)cc1
Output: -94.7

Input: Quick one: give measured growth for Cc1cc(=O)[nH]c(N/N=C/c2ccccc2O)n1
Output: 48.7

Input: Write down growth measured for item O=C1/C(=C\c2ccc(F)cc2)CN(C(=O)c2ccc([N+](=O)[O-])cc2)C/C1=C\c1ccc(F)cc1
Output: 64.5
